- Subject Of Test: UniProtKB O00187
- Sequence (O00187 445-686): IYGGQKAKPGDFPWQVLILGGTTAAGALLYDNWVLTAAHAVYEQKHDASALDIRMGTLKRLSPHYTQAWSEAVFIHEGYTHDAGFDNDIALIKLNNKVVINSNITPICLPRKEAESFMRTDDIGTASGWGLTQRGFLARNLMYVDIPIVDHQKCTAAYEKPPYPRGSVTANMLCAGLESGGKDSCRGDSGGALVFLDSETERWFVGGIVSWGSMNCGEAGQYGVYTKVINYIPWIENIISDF
- Sequence (O00187 364-432 partner): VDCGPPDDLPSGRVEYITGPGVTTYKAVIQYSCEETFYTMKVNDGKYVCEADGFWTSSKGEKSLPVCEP
- Measurement Description: MASP-2 co-crystallization, X-ray crystallography and structure analysis (H-bonds, van der Waals contacts)
- Study Conditions: Table A5-1 pharmacophore: distance between elements, S2/S1 region
Measured Parameter: d(CA1,O4)
Write no unit; give the number alone.

Use these answered entries as a reference point.
>>> meas_value("C[C@H](NC(=O)[C@H]1C[C@@H](c2ccccc2)CCN1)C(=O)NCc1cc(Cl)ccc1O.Cl [1078_6]")
2.75
>>> meas_value("C[C@H](NC(=O)[C@H]1C[C@@H](c2ccccc2)CCN1)C(=O)NCc1cc(Cl)ccc1O.Cl [1078_3]")
2.75
>>> meas_value("CC(NC(=O)C1CC(Cc2ccccc2)CN1)C(=O)NCc1cnc2c(c1)c(Cl)cn2C.Cl.Cl (mixture of isomers) [1450_A]")
1.75
>>> meas_value("C[C@H](NC(=O)[C@H]1C[C@@H](c2ccccc2)CCN1)C(=O)NCc1cc(Cl)ccc1O.Cl [1078_11]")
2.75
>>> meas_value("C[C@H](NC(=O)[C@H]1C[C@@H](c2ccccc2)CCN1)C(=O)NCc1cc(Cl)ccc1O.Cl [1078_9]")
2.74

QUERY: Return reported d(CA1,O4); argument: C[C@H](NC(=O)[C@H]1C[C@@H](c2ccccc2)CCN1)C(=O)NCc1cc(Cl)ccc1O.Cl [1078_5]
RESULT: 2.72

QUERY: Any idea what d(CA1,O4) was measured for C[C@H](NC(=O)[C@H]1C[C@@H](c2ccccc2)CCN1)C(=O)NCc1cc(Cl)ccc1O.Cl [1078_8] ?
RESULT: 2.75
